Reference source for all entries: paper PMC10487436

test system: SNB-19 (human glioblastoma); experiment: WST-1 proliferation assay, SNB-19; format: cell-based; conditions: Homo sapiens, SNB-19, 72 h exposure
Provide the recorded log10(IC50) for the entries that follow.
// stored as log10 of IC50 expressed in µM

Here are 3 compounds together with their reported answers.
C=CCn1cc(COc2ccc3c(c2)Sc2c[n+](C)c4ccccc4c2N3)nn1 [2a] :: -0.64
C[n+]1cc2c(c3ccccc31)Nc1ccc(OCc3cn(CSc4ccccc4)nn3)cc1S2 [2j] :: 0.94
C=CCn1cc(COc2ccc3c(c2)Nc2c(c[n+](C)c4ccccc24)S3)nn1 [2b] :: 0.43

// each listed compound needs a value for log10(IC50)
1. C[n+]1cc2c(c3ccccc31)Nc1c(OCc3cn(CSc4ccccc4)nn3)cccc1S2 [2l]
2. C[n+]1cc2c(c3ccccc31)Nc1ccc(OCc3cn(Cc4ccc([N+](=O)[O-])cc4)nn3)cc1S2 [2g]

RESULT:
0.98
0.92

###

Provide the recorded MIC for the entries that follow.
system: methicillin-resistant S. aureus SA 630; assay: MIC, microtitration broth method, MRSA2; type: cell-based; details: Staphylococcus aureus; 24 h at 37 °C
One number for each entry, in µM.

// each listed compound needs a value for MIC
1. C[n+]1cc2c(c3ccccc31)Nc1cc(OCc3cn(CSc4ccccc4)nn3)ccc1S2
2. C=CCn1cc(COc2cccc3c2Nc2c(c[n+](C)c4ccccc24)S3)nn1
3. C[n+]1cc2c(c3ccccc31)Nc1cc(OCc3cn(Cc4ccc([N+](=O)[O-])cc4)nn3)ccc1S2

RESULT:
1. 65.5
2. 524
3. 262

###

system: methicillin-resistant S. aureus SA 630; test: MIC, microtitration broth method, MRSA2; assay type: cell-based; conditions: Staphylococcus aureus; 24 h at 37 °C
Endpoint: MIC (µM)
One number for each entry, in µM.

Here are 3 compounds together with their reported answers.
C=CCn1cc(COc2ccc3c(c2)Sc2c[n+](C)c4ccccc4c2N3)nn1 :: 262
C[n+]1cc2c(c3ccccc31)Nc1c(OCc3cn(Cc4ccc([N+](=O)[O-])cc4)nn3)cccc1S2 :: 524
C[n+]1cc2c(c3ccccc31)Nc1ccc(OCc3cn(-c4ccc(Cl)cc4)nn3)cc1S2 :: 131

// each listed compound needs a value for MIC
1. C[n+]1cc2c(c3ccccc31)Nc1ccc(OCc3cn(Cc4ccccc4)nn3)cc1S2
2. C[n+]1cc2c(c3ccccc31)Nc1cc(OCc3cn(Cc4ccccc4)nn3)ccc1S2
3. C[n+]1cc2c(c3ccccc31)Nc1c(OCc3cn(CSc4ccccc4)nn3)cccc1S2
4. C[n+]1cc2c(c3ccccc31)Nc1ccc(OCc3cn(CSc4ccccc4)nn3)cc1S2
5. C[n+]1cc2c(c3ccccc31)Nc1ccc(OCc3cn(Cc4ccc([N+](=O)[O-])cc4)nn3)cc1S2

RESULT:
131
65.5
65.5
65.5
262

###

Staphylococcus aureus ATCC 29213: reported MIC for various compounds.
One number for each entry, in µM.

Here are 5 compounds together with their reported answers.
C[n+]1cc2c(c3ccccc31)Nc1cc(OCc3cn(Cc4ccc([N+](=O)[O-])cc4)nn3)ccc1S2 :: 131
C=CCn1cc(COc2ccc3c(c2)Sc2c[n+](C)c4ccccc4c2N3)nn1 :: 131
C[n+]1cc2c(c3ccccc31)Nc1c(OCc3cn(CSc4ccccc4)nn3)cccc1S2 :: 65.5
C[n+]1cc2c(c3ccccc31)Nc1ccc(OCc3cn(CSc4ccccc4)nn3)cc1S2 :: 65.5
CC1(C)S[C@@H]2[C@H](NC(=O)[C@H](N)c3ccccc3)C(=O)N2[C@H]1C(=O)O [AMP, ampicillin, reference compound] :: 5.72

// each listed compound needs a value for MIC
1. C[n+]1cc2c(c3ccccc31)Nc1cc(OCc3cn(Cc4ccccc4)nn3)ccc1S2
2. C=CCn1cc(COc2cccc3c2Nc2c(c[n+](C)c4ccccc24)S3)nn1
3. C[n+]1cc2c(c3ccccc31)Nc1ccc(OCc3cn(-c4ccc(Cl)cc4)nn3)cc1S2

RESULT:
[32.8, 524, 65.5]
